Measured human MASP1 IC50 accompanies every entry in the list below.
Target: T1, recombinant human MASP1 active protease (amino acids 297-699, C-terminal His Tag) (human, UniProt P48740 297-699)
T1 sequence: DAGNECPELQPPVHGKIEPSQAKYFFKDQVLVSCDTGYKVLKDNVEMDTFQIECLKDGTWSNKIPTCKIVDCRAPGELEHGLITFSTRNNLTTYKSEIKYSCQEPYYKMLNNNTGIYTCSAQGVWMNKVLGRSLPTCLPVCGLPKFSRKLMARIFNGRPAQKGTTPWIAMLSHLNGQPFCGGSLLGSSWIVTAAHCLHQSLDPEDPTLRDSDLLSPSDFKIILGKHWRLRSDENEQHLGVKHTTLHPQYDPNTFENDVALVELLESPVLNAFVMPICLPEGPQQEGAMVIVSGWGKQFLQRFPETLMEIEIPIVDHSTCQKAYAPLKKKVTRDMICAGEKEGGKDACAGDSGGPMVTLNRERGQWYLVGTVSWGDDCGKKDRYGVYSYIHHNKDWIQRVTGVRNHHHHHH
Assay: cell-based or functional assay
Bridge positions count the residues as written; N and C are the ends. Square brackets hold non-standard residues; d marks the D form. Ends that are not written are not given here. (S)‑3‑(2H-tetrazol-5-yl)propanoic acid = (S)-3-(2H-tetrazol-5-yl)propanoic acid; Oic = O=C(O)[C@@H]1C[C@@H]2CCCC[C@@H]2N1; PEG8 = NCCOCCOCCOCCOCCOCCOCCOCCOCCC(=O)O; tBuAla = CC(C)(C)C[C@H](N)C(=O)O; Pen = CC(C)(S)[C@H](N)C(=O)O; Sar = CNCC(=O)O

BINDER	UNIT_SYMBOL	human MASP1 IC50
AICSRSLP[Oic]I[Pen]IPE-OH (disulfide 3-11; N-terminus assumed; SMILES CC[C@H](C)[C@H](NC(=O)[C@H](C)N)C(=O)N[C@H]1CSSC(C)(C)[C@@H](C(=O)N[C@H](C(=O)N2CCC[C@H]2C(=O)N[C@@H](CCC(=O)O)C(=O)O)[C@@H](C)CC)NC(=O)[C@H]([C@@H](C)CC)NC(=O)[C@@H]2C[C@@H]3CCCC[C@@H]3N2C(=O)[C@@H]2CCCN2C(=O)[C@H](CC(C)C)NC(=O)[C@H](CO)NC(=O)[C@H](CCCNC(=N)N)NC(=O)[C@H](CO)NC1=O) [AIC+SRSLP-(Oic)-I-(Pen)+IPE-OH]	nM	3.5
[Sar]ICSRS[tBuAla]PPI[Pen]IP[(S)‑3‑(2H-tetrazol-5-yl)propanoic acid]-NH2 (disulfide 3-11) [((N-Me)G)-IC+SRS-((tBu)A)-PPI-(Pen)+IP-((S)-3-(2H-tetrazol-5-yl)propanoic acid)-NH2]	nM	1.8
[Sar]ICSRS[tBuAla]PPI[Pen]IP-{PEG8-NH2} (disulfide 3-11) [((N-Me)G)-IC+SRS-((tBu)A)-PPI-(Pen)+IP-(PEG8(28 atoms))-NH2]	nM	2.2
